MEASURE_NAME: melting point

Worked examples, 4 molecules total:
1. O=S(=O)(NCC(O)(Cn1cncn1)c1ccc(Cl)cc1Cl)c1cccs1 (stereo not given)	169 to 180 °C
2. COc1c(C)c(N2CCN(c3ccc4c(c3)OCCO4)CC2)c(C)c2c1OC(C)(C)C2	167 to 168 °C
3. CC1=C(C(=O)O)N2C(=O)C(=NSc3ccc(C)cc3)C2SC1 (stereo not given)	186 to 187 °C
4. CCOC(=O)CCNC=C(C(=O)OCC)C(=O)c1cc(F)c(F)c(F)c1F	96 to 97 °C

Task: Which melting point value is on record for O=C(OC1CCCCC1=O)c1ccccc1 (stereo not given) ?
Output: 81 to 83 °C

###

MEASURE_NAME: melting point

1. COc1ccc(CN2C(=O)C(NC(=O)OCc3ccccc3)C2C2COC(=O)O2)cc1OC (stereo not given)	135 to 136 °C
2. CCOC(=O)c1nc(C=Cc2cccc(C(F)(F)F)c2)oc1C	103 to 104 °C
3. O=C(Nc1cc2ncc(CN3CCCC3)cc2cc1F)c1ccc(-c2ccc(F)cc2)cc1F	200 to 202 °C
4. COC(=O)c1ccc(C(=O)Nc2ccc3ccc(Cl)nc3n2)cc1	275 °C

Now turn to the next compound.
Task: I would be grateful if you could share the reported melting point for O=C1[C@H]2CCC[C@H]2N(C(=O)CN2CCN(c3ccccc3)CC2)c2ccccc2N1Cc1ccccc1 (relative stereo) .
Output: 164 to 165 °C

###

Measured melting point, listed per entry for reference.

Task: Given the entry O=c1nc(-c2cccc(Cl)c2)c2cc(Br)ccc2[nH]1 , report its measured melting point.
Output: 281 °C

Task: Fill blank: measured melting point of the compound CCc1nn(CCO)c(CC)c1C(=O)c1cc(Cl)cc(Cl)c1 is ____.
Output: 134 °C

Task: Which measured melting point value corresponds to COCn1c(-c2nc3c(OC)ccc(N4CCOCC4)c3s2)nc2ccc(N3CCC(O)CC3)nc21 ?
Output: 120 to 130 °C

Task: Which measured melting point value corresponds to CNS(=O)(=O)c1cc(OC)c(OC)c(C(=O)O)c1 ?
Output: 164 to 165 °C

###

MEASURE_NAME: melting point (°C)

(1) CCCCCC1OCc2cc(C(=O)O)ccc2O1 (stereo not given)
(2) O=c1oc2c(c(O)c1-c1ccc(F)cc1)CCCC2
Task: Which item exceeds the other in melting point, 1 or 2 ? # answer = label of selected item
Output: 2

###

Examples of compounds with documented melting point follow.

1) C=Cc1ccc(-c2ccc3c4ccc5c6c(ccc(c7cccc2c73)c64)C(=O)N(c2c(C(C)C)cccc2C(C)C)C5=O)cc1	> 300 °C

Task: So what does the record say about melting point for CCCCc1ncc2ccccc2c1Cc1ccc(C(=O)O)cc1 ?
Output: 212 °C

Task: // lookup melting point for CC(C)c1ccc(S(=O)(=O)c2ccccc2)cc1S(=O)(=O)NC1CCN(C(=O)c2cccc(F)c2)CC1
Output: 215 to 218 °C

Task: Value lookup for melting point; key = CONC(=O)NC1(c2ccc(C(C)C)cc2OC)C(=O)c2ccccc2C1=O
Output: 153 to 155 °C

Task: Dear colleague, I am looking for the recorded melting point of the following compound: O=C1Nc2ccc(I)cc2C1=NNC(=O)c1cccc(Oc2ccccc2)c1
Output: 283 °C

Task: Please report the recorded melting point for CCn1c2ccc(C=O)cc2c2ccc3ccccc3c21 .
Output: 135 to 140 °C

Task: Query: melting point; subject: CCC(C)C(=O)c1cn(C)cc(-c2cccc(C(F)(F)F)c2)c1=O (centres undefined)
Output: 109 to 111 °C

Task: Suppose we examine the compound c1ccc2c(c1)CCc1c(CN3CCN(c4ccc5ccccc5n4)CC3)n[nH]c1-2 ; what melting point value has been reported?
Output: 154 to 155 °C

Task: Please report the recorded melting point for CCC(=CC(CNC(=O)c1cnccc1C(N)=O)=NO)C(C)[N+](=O)[O-] (centres undefined) .
Output: 122 to 123 °C
